- System: Rattus norvegicus
- ASSAY SUMMARY: Gastrointestinal toxicity in albino rat assessed as incidence of gastric ulceration at 100 mg/kg, po by histopathological study
- Assay type: organism-based, Stomach
- Parameters: dose 100 mg/kg, route oral
- EXPERIMENTAL CONDITIONS: in vivo
VALUE TYPE: Activity

- SUBSTANCE SMILES: "O=C(c1ccccc1)c1c(C(=O)N2CCN(C(=O)CO[N+](=O)[O-])CC2)nn(-c2ccccc2)c1-c1ccccc1"
  VALUE TYPE: "Activity"
  TEST RESULT: "Non-toxic"
- SUBSTANCE SMILES: "O=C(c1ccccc1)c1c(C(=O)N2CCNCC2)nn(-c2ccccc2)c1-c1ccccc1"
  VALUE TYPE: "Activity"
  TEST RESULT: "Toxic"
- SUBSTANCE SMILES: "O=C(Nc1ccc(Cl)cc1)c1nn(-c2ccccc2)c(-c2ccccc2)c1C(=O)c1ccccc1"
  VALUE TYPE: "Activity"
  TEST RESULT: "Toxic"
- SUBSTANCE SMILES: "O=C(Nc1ccc(Cl)cc1)c1nn(-c2ccccc2)c(-c2ccccc2)c1/C(=N/O)c1ccccc1"
  VALUE TYPE: "Activity"
  TEST RESULT: "Non-toxic"

----------
- Tested on: Rattus norvegicus
- ASSAY SUMMARY: Gastrointestinal toxicity in albino rat assessed as ulcer index at 100 mg/kg, po
- Type: organism-based
- Parameters: dose 100 mg/kg, route oral
- EXPERIMENTAL CONDITIONS: in vivo
UI values for the compounds below.

- SUBSTANCE SMILES: "O=C(O)c1ccc(NC(=O)c2nn(-c3ccccc3)c(-c3ccccc3)c2/C(=N/O)c2ccccc2)cc1"
  UI: 8.5
- SUBSTANCE SMILES: "O=C(c1ccccc1)c1c(C(=O)N2CCNCC2)nn(-c2ccccc2)c1-c1ccccc1"
  UI: 23
- SUBSTANCE SMILES: "O=C(Nc1ccc(Cl)cc1)c1nn(-c2ccccc2)c(-c2ccccc2)c1/C(=N/O)c1ccccc1"
  UI: 7.5
- SUBSTANCE SMILES: "O=C(OCCBr)c1nn(-c2ccccc2)c(-c2ccccc2)c1C(=O)c1ccccc1"
  UI: 11
- SUBSTANCE SMILES: "C/C(=N\\O)c1ccc(NC(=O)c2nn(-c3ccccc3)c(-c3ccccc3)c2C(=O)c2ccccc2)cc1"
  UI: 4

----------
- Test system: Rattus norvegicus
- ASSAY SUMMARY: Gastrointestinal toxicity in albino rat assessed as ulcer index at 100 mg/kg, po
- Format: organism-based
- Parameters: dose 100 mg/kg, route oral
- EXPERIMENTAL CONDITIONS: in vivo
Lab note - cut at 9 for UI: YES if strictly below, NO if not.

- SUBSTANCE SMILES: "COc1ccc2c(c1)c(CC(=O)O)c(C)n2C(=O)c1ccc(Cl)cc1"
  ASSAYED SYSTEM: "Rattus norvegicus"
  ASSIGNED CLASS: "NO"
- SUBSTANCE SMILES: "O=C(Nc1ccc(S(=O)(=O)Nc2ncccn2)cc1)c1nn(-c2ccccc2)c(-c2ccccc2)c1/C(=N/O)c1ccccc1"
  ASSAYED SYSTEM: "Rattus norvegicus"
  ASSIGNED CLASS: "YES"
- SUBSTANCE SMILES: "O=C(OCCO[N+](=O)[O-])c1nn(-c2ccccc2)c(-c2ccccc2)c1C(=O)c1ccccc1"
  ASSAYED SYSTEM: "Rattus norvegicus"
  ASSIGNED CLASS: "YES"
- SUBSTANCE SMILES: "Cc1ccc(NC(=O)c2nn(-c3ccccc3)c(-c3ccccc3)c2C(=O)c2ccccc2)cc1"
  ASSAYED SYSTEM: "Rattus norvegicus"
  ASSIGNED CLASS: "YES"
- SUBSTANCE SMILES: "O=C(O)c1ccc(NC(=O)c2nn(-c3ccccc3)c(-c3ccccc3)c2C(=O)c2ccccc2)cc1"
  ASSAYED SYSTEM: "Rattus norvegicus"
  ASSIGNED CLASS: "NO"
